B1: CDKL4 (parent)
chain: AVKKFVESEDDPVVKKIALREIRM

- Variants of: B1
- PROTOCOL NOTES: protein stability index of a GFP-peptide fusion (GPS, HEK-293T) (PSI 1-6); higher = more stable;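 note: lentivirally expressed fusions sorted by FACS into six bins by GFP to DsRed ratio, PSI derived from sequencing read proportions per bin multiplied by bin number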
- CONDITION DESCRIPTION: c terminus: a fixed tail appended
Please enter yes where protein stability index is greater than or equal to 3, and no where it is lower.

{"columns": ["CHANGE", "QUALITATIVE LABEL"],
 "data": [
  ["I17F", "no"],
  ["E21A", "no"],
  ["K16G", "yes"],
  ["R23S", "no"],
  ["E9D", "no"],
  ["K15E", "yes"],
  ["E9V", "no"],
  ["V2F", "no"],
  ["V13T", "yes"],
  ["P12D", "yes"]
]}

Determine whether measured protein stability index meets or exceeds 3 for V13M no

Decide: is the reported value of protein stability index for A1E equal to or greater than 3? yes

Given the entry K4I , answer whether its protein stability index meets or surpasses 3. no

Assess whether reported protein stability index for R20Q sits at 3 or higher. yes

Quick check, protein stability index >= 3? L19D yes
